system: SW480; assay: TCF/Wnt firefly luciferase reporter signal relative to plate median (fraction of plate median); higher = higher Wnt reporter signal; conditions: 5 µM; treatment time 24 h; reporter: 7TFP
Listing of recorded TCF/Wnt firefly luciferase reporter signal by entry.
// no unit, no text: just the number

Clc1ccc(COC(Cn2ccnc2)c2ccc(Cl)cc2Cl)c(Cl)c1 (stereo not given)	1.04

Would you kindly share the measured TCF/Wnt firefly luciferase reporter signal for C=C(C)[C@@H]1C[C@H](O)[C@]2(C(=O)O)CC[C@]3(C)[C@H](C[C@H]4OC(=O)C[C@@H](O)[C@]5(C)[C@@H]4[C@@]3(C)CC[C@H]5C(=C)C)[C@@H]12 [22alpha-hydroxychiisanogenin (11)] ?
0.922

Quick one: TCF/Wnt firefly luciferase reporter signal for CN(C)C(=O)Nc1ccc(Cl)c(Cl)c1 ?
1.15

Please give the measured TCF/Wnt firefly luciferase reporter signal for this molecule: CC(C)NCC(O)c1ccc(O)c(O)c1 (stereo not given)
1.1

Look up TCF/Wnt firefly luciferase reporter signal: COc1ccc(CN(CCN(C)C)c2ccccn2)cc1
1.13

Which TCF/Wnt firefly luciferase reporter signal is listed for CN(C)CCc1c[nH]c2ccc(CS(=O)(=O)N3CCCC3)cc12 ?
1.06
